# assayed.target: Insulin-like growth factor 1 receptor (Homo sapiens, UniProt P08069)
# Sequence (P08069 31-736 limits assumed): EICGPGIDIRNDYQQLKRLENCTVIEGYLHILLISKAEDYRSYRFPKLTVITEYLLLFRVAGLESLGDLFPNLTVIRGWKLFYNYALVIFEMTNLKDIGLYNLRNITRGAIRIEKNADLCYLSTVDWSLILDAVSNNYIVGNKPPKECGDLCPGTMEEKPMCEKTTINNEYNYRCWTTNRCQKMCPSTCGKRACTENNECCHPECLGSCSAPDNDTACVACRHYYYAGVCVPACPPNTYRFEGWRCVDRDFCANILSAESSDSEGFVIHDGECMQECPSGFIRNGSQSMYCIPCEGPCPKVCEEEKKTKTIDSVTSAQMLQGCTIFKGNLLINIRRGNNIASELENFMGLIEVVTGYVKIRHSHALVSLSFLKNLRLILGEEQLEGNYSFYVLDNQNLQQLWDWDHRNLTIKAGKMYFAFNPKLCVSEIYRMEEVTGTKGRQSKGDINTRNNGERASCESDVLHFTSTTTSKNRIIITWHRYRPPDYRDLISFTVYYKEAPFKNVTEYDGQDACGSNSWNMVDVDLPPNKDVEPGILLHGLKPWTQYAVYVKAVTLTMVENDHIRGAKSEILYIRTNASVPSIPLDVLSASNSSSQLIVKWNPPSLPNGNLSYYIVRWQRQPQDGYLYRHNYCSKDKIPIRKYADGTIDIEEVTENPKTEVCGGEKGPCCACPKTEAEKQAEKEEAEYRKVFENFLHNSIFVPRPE
# Sequence (P08069 741-1367 limits assumed): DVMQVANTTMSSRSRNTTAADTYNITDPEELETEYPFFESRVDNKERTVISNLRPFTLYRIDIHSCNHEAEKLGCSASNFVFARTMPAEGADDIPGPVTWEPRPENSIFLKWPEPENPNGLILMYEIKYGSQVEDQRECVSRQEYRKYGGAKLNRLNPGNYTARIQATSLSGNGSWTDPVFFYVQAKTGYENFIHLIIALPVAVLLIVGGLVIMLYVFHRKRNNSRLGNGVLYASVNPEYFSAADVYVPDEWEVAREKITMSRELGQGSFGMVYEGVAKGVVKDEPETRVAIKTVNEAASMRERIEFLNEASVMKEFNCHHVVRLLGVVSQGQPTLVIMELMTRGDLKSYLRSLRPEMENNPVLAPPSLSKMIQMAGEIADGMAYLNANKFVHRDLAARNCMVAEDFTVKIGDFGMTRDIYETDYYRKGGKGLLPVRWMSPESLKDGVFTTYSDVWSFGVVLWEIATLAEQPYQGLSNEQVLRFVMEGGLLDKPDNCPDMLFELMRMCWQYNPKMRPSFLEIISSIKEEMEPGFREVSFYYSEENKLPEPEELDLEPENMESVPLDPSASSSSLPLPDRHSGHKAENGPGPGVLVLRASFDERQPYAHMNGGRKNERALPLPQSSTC
# assay.details: Inhibition of GST-tagged human IGF1R expressed in Sf9-baculovirus system
readout: IC50 (nM)

Observe how each entry below is paired with its result.
1) O=C(Nc1cccc(-c2c[nH]c3ncc(-c4cccc(C(=O)O)c4)cc23)c1)Nc1ccccc1Oc1ccccc1 : 184
2) NCc1ccc(-c2cnc3[nH]cc(-c4cccc(NC(=O)Nc5ccc(C(F)(F)F)cc5F)c4)c3c2)cc1 : 50

P. CN(C)CCNC(=O)c1ccc(-c2cnc3[nH]cc(-c4cccc(NC(=O)Nc5ccc(C(F)(F)F)cc5F)c4)c3c2)cc1
Q. CN(C)CCNC(=O)c1cccc(-c2cnc3[nH]cc(-c4cccc(NC(=O)Nc5ccc(C(F)(F)F)cc5F)c4)c3c2)c1
Prompt: Would you let me know which has the greater IC50 value, P or Q ? In your reply, give the label of the chosen option.
Completion: Q
